# Tested on: MGC-803
# Protocol Notes: Cytotoxicity against human MGC803 cells assessed as growth inhibition at 20 uM after 48 hrs by MTT assay relative to control
# Type: functional
# Condition Notes: MGC-803, 48 h
A collection of compounds and their measured inhibition at 20 µM

Compound: Cn1cnc2c1c(=O)n(CC(=O)N1CCSCC1)c(=O)n2C
Target Or Test System: MGC-803
Unit Of Measure: %
inhibition at 20 µM: 5.6
--
Compound: CCCn1c(SCc2ccc(C(C)(C)C)cc2)nc2c1c(=O)[nH]c(=O)n2C
Target Or Test System: MGC-803
Unit Of Measure: %
inhibition at 20 µM: 10.3
--
Compound: Cn1cnc2c1c(=O)n(CC(=O)N1CCC(F)(F)CC1)c(=O)n2C
Target Or Test System: MGC-803
Unit Of Measure: %
inhibition at 20 µM: 11.3
--
Compound: Cc1ccc(S(=O)(=O)N2CCN(C(=O)Cn3c(=O)c4c(ncn4C)n(C)c3=O)CC2)cc1
Target Or Test System: MGC-803
Unit Of Measure: %
inhibition at 20 µM: 20.1
--
Compound: Cn1cnc2c1c(=O)n(CC(=O)O)c(=O)n2C
Target Or Test System: MGC-803
Unit Of Measure: %
inhibition at 20 µM: 0.8
--
Compound: Cn1cnc2c1c(=O)n(CC(=O)N1CCN(c3ccccc3)CC1)c(=O)n2C
Target Or Test System: MGC-803
Unit Of Measure: %
inhibition at 20 µM: 4.6
--
Compound: CCCn1c(SCc2ccc(F)cc2)nc2c1c(=O)[nH]c(=O)n2C
Target Or Test System: MGC-803
Unit Of Measure: %
inhibition at 20 µM: 86.5
--
Compound: CCCn1c(SCC(=O)Nc2ccc(C)cc2)nc2c1c(=O)[nH]c(=O)n2C
Target Or Test System: MGC-803
Unit Of Measure: %
inhibition at 20 µM: 42.2
--
Compound: CCCn1c(SCc2ccc([N+](=O)[O-])cc2)nc2c1c(=O)[nH]c(=O)n2C
Target Or Test System: MGC-803
Unit Of Measure: %
inhibition at 20 µM: 19.8
--
Compound: CCCn1c(SCc2ccccc2C)nc2c1c(=O)[nH]c(=O)n2C
Target Or Test System: MGC-803
Unit Of Measure: %
inhibition at 20 µM: 88.6
--
Compound: C=CCSc1nc2c(c(=O)[nH]c(=O)n2C)n1CCC
Target Or Test System: MGC-803
Unit Of Measure: %
inhibition at 20 µM: 5.5
--
Compound: Cn1cnc2c1c(=O)n(CC(=O)OC(C)(C)C)c(=O)n2C
Target Or Test System: MGC-803
Unit Of Measure: %
inhibition at 20 µM: 17.2
--
Compound: CN1CCN(C(=O)Cn2c(=O)c3c(ncn3C)n(C)c2=O)CC1
Target Or Test System: MGC-803
Unit Of Measure: %
inhibition at 20 µM: 8.6
--
Compound: C#CCN1CCN(C(=O)Cn2c(=O)c3c(ncn3C)n(C)c2=O)CC1
Target Or Test System: MGC-803
Unit Of Measure: %
inhibition at 20 µM: 14.1
--
Compound: CCCn1c(SCc2cccc(C)c2)nc2c1c(=O)[nH]c(=O)n2C
Target Or Test System: MGC-803
Unit Of Measure: %
inhibition at 20 µM: 84.1
--
Compound: C=CC(=O)N1CCN(C(=O)Cn2c(=O)c3c(ncn3C)n(C)c2=O)CC1
Target Or Test System: MGC-803
Unit Of Measure: %
inhibition at 20 µM: 1.3
--
Compound: Cn1cnc2c1c(=O)n(CC(=O)N1CCN(C(=O)OC(C)(C)C)CC1)c(=O)n2C
Target Or Test System: MGC-803
Unit Of Measure: %
inhibition at 20 µM: 20
--
Compound: Cn1cnc2c1c(=O)n(CC(=O)N1CCN(C(=O)/C=C/c3ccccc3)CC1)c(=O)n2C
Target Or Test System: MGC-803
Unit Of Measure: %
inhibition at 20 µM: 9.5
--
Compound: CCCn1c(SCc2cccc(OC)c2)nc2c1c(=O)[nH]c(=O)n2C
Target Or Test System: MGC-803
Unit Of Measure: %
inhibition at 20 µM: 34.2
--
Compound: Cn1cnc2c1c(=O)n(CC(=O)N1CCC(N3CCCCC3)CC1)c(=O)n2C
Target Or Test System: MGC-803
Unit Of Measure: %
inhibition at 20 µM: 19.8
--
Compound: Cn1cnc2c1c(=O)n(CC(=O)N1CCOCC1)c(=O)n2C
Target Or Test System: MGC-803
Unit Of Measure: %
inhibition at 20 µM: 19.9
--
Compound: Cn1cnc2c1c(=O)n(CC(=O)N1CCCCC1)c(=O)n2C
Target Or Test System: MGC-803
Unit Of Measure: %
inhibition at 20 µM: 16.8
--
Compound: Cn1cnc2c1c(=O)n(CC(=O)N1CCN(Cc3ccc(Cl)cc3)CC1)c(=O)n2C
Target Or Test System: MGC-803
Unit Of Measure: %
inhibition at 20 µM: 22.5
